// reported IC50 per item
molecular target: Cysteinyl leukotriene receptor 1 (Cavia porcellus, UniProt Q2NNR5); test: Inhibitory concentration against [3H]Leukotriene D4 binding to guinea-pig lung membranes was determined; experiment 1; assay type: tissue-based, Membrane
Quantity Kind: IC50 (nM)

>  <Compound>
CS(=O)(=O)Nc1ccccc1CCC(SCCC(=O)[O-])c1cccc(OCc2ccc3ccc(Cl)cc3n2)c1.[Na+] (stereo not drawn)

>  <Quantity Kind>
IC50

>  <Reported Value>
0.56

$$$$
>  <Compound>
CCC(CSC(CCc1ccccc1C(=O)O)c1cccc(OCc2ccc3ccc(Cl)cc3n2)c1)C(=O)[O-].[Na+] (stereo not drawn)

>  <Quantity Kind>
IC50

>  <Reported Value>
2

$$$$
>  <Compound>
C[C@@H](CS[C@H](CCc1ccccc1C(C)(C)O)c1cccc(OCc2ccc3ccc(Cl)cc3n2)c1)C(=O)[O-].[Na+]

>  <Quantity Kind>
IC50

>  <Reported Value>
0.2

$$$$
>  <Compound>
CC(CSC(CCc1ccccc1[N+](=O)[O-])c1cccc(OCc2ccc3ccc(Cl)cc3n2)c1)C(=O)[O-].[Na+] (stereo not drawn)

>  <Quantity Kind>
IC50

>  <Reported Value>
0.4

$$$$
>  <Compound>
NS(=O)(=O)c1ccccc1CCC(SCCC(=O)[O-])c1cccc(OCc2ccc3ccc(Cl)cc3n2)c1.[Na+] (stereo not drawn)

>  <Quantity Kind>
IC50

>  <Reported Value>
0.4

$$$$
>  <Compound>
C[C@H](CS[C@@H](CCc1ccccc1C(C)(C)O)c1cccc(OCc2ccc3ccc(Cl)cc3n2)c1)C(=O)[O-].[Na+]

>  <Quantity Kind>
IC50

>  <Reported Value>
17

$$$$
>  <Compound>
CCC(CSC(CCc1ccccc1-c1nn[nH]n1)c1cccc(OCc2ccc3ccc(Cl)cc3n2)c1)C(=O)[O-].[Na+] (stereo not drawn)

>  <Quantity Kind>
IC50

>  <Reported Value>
0.8

$$$$
>  <Compound>
C[C@H](CS[C@H](CCc1ccccc1C(C)(C)O)c1cccc(OCc2ccc3ccc(Cl)cc3n2)c1)C(=O)[O-].[Na+]

>  <Quantity Kind>
IC50

>  <Reported Value>
2

$$$$
>  <Compound>
CCC(CSC(CCc1ccccc1C(=O)NS(=O)(=O)c1ccccc1C)c1cccc(OCc2ccc3ccc(Cl)cc3n2)c1)C(=O)[O-].[Na+] (stereo not drawn)

>  <Quantity Kind>
IC50

>  <Reported Value>
1.4

$$$$
>  <Compound>
CC(CSC(CCc1ccccc1C(C)(C)O)c1cccc(OCc2ccc3ccc(Cl)cc3n2)c1)C(=O)[O-].[Na+] (stereo not drawn)

>  <Quantity Kind>
IC50

>  <Reported Value>
0.5

$$$$
>  <Compound>
C[C@@H](CS[C@@H](CCc1ccccc1C(C)(C)O)c1cccc(OCc2ccc3ccc(Cl)cc3n2)c1)C(=O)[O-].[Na+]

>  <Quantity Kind>
IC50

>  <Reported Value>
5

$$$$
>  <Compound>
CCC(CSC(CCc1ccccc1S(C)(=O)=O)c1cccc(OCc2ccc3ccc(Cl)cc3n2)c1)C(=O)[O-].[Na+] (stereo not drawn)

>  <Quantity Kind>
IC50

>  <Reported Value>
0.6

$$$$
>  <Compound>
CCOC(=O)Nc1ccccc1CCC(SCC(CC)C(=O)[O-])c1cccc(CCc2ccc3ccc(Cl)cc3n2)c1.[Na+] (stereo not drawn)

>  <Quantity Kind>
IC50

>  <Reported Value>
0.5

$$$$

###

Biological target: Cysteinyl leukotriene receptor 1 (Cavia porcellus, UniProt Q2NNR5)
Sequence (Q2NNR5 whole entry): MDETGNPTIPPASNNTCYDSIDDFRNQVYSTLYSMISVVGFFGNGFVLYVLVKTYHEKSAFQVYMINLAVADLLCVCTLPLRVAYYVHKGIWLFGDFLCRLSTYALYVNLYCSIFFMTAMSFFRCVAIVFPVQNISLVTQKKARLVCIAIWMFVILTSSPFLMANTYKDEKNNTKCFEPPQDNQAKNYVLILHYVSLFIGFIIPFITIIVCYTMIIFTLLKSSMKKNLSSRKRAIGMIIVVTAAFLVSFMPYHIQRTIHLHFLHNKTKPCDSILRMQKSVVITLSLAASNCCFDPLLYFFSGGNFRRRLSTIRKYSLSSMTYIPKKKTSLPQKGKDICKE
Assay: Inhibitory concentration against [3H]Leukotriene D4 binding to guinea-pig lung membranes was determined
Format: tissue-based, Membrane
pIC50: −log10 of the molar value.
Respond with true (1) for pIC50 values of 9 and above, false (0) for values below.

>  <Compound>
CCNC(=O)c1ccccc1CCC(SCC(CC)C(=O)[O-])c1cccc(OCc2ccc3ccc(Cl)cc3n2)c1.[Na+] (centres undefined)

>  <Group Label>
true (1)

$$$$
>  <Compound>
CN(C)C(=O)CCSC(SCCC(=O)O)c1cccc(SCc2ccc3ccc(Cl)cc3n2)c1 (centres undefined)

>  <Group Label>
false (0)

$$$$
>  <Compound>
CC(CSC(CCc1ccccc1C(=O)N(C)C)c1cccc(OCc2ccc3ccc(Cl)cc3n2)c1)C(=O)O (centres undefined)

>  <Group Label>
true (1)

$$$$
>  <Compound>
CN(C)C(=O)CCS[C@H](SCCC(=O)O)c1cccc(/C=C/c2ccc3ccc(Cl)cc3n2)c1

>  <Group Label>
false (0)

$$$$
>  <Compound>
O=C([O-])CCSC(CCc1ccccc1)c1cccc(OCc2ccc3ccc(Cl)cc3n2)c1.[Na+] (centres undefined)

>  <Group Label>
false (0)

$$$$
>  <Compound>
CC(CCC(SCCC(=O)O)c1cccc(OCc2ccc3ccc(Cl)cc3n2)c1)CC(=O)N(C)C (centres undefined)

>  <Group Label>
false (0)

$$$$
>  <Compound>
CCC(CSC(CCc1ccccc1-c1nnnn1C)c1cccc(OCc2ccc3ccc(Cl)cc3n2)c1)C(=O)[O-].[Na+] (centres undefined)

>  <Group Label>
true (1)

$$$$
>  <Compound>
CN(C)C(=O)CCSC(CCc1ccccc1C(=O)O)c1cccc(OCc2ccc3ccc(Cl)cc3n2)c1 (centres undefined)

>  <Group Label>
false (0)

$$$$
>  <Compound>
CC(CSC(CCc1ccccc1C(C)C)c1cccc(OCc2ccc3ccc(Cl)cc3n2)c1)C(=O)[O-].[Na+] (centres undefined)

>  <Group Label>
false (0)

$$$$
>  <Compound>
CN(C)C(=O)CCSC(SCCC(=O)O)c1cccc(OCc2ccc3ccc(Cl)cc3n2)c1 (centres undefined)

>  <Group Label>
false (0)

$$$$
>  <Compound>
CCC(CSC(CCc1ccccc1C(N)=O)c1cccc(OCc2ccc3ccc(Cl)cc3n2)c1)C(=O)[O-].[Na+] (centres undefined)

>  <Group Label>
true (1)

$$$$
>  <Compound>
O=C([O-])CCSC(CCc1ccccc1-c1nc[nH]n1)c1cccc(OCc2ccc3ccc(Cl)cc3n2)c1.[Na+] (centres undefined)

>  <Group Label>
true (1)

$$$$
>  <Compound>
CC(CSC(CCc1ccccc1C(=O)N(C)CO)c1cccc(OCc2ccc3ccc(Cl)cc3n2)c1)C(=O)O (centres undefined)

>  <Group Label>
false (0)

$$$$

###

// reported clearance per item
test: The apparent total plasma clearance in monkey; assay type: ADME, organism-based; details: cercopithecidae
Quantity Kind: clearance (mL/min/kg)

>  <Compound>
CN(C)C(=O)CCS[C@H](SCCC(=O)O)c1cccc(/C=C/c2ccc3ccc(Cl)cc3n2)c1 [MK-571]

>  <Reported Value>
1.2

$$$$
>  <Compound>
CN(C)C(=O)CCSC(CCc1ccccc1C(=O)O)c1cccc(OCc2ccc3ccc(Cl)cc3n2)c1 (configuration not stated)

>  <Reported Value>
15

$$$$

###

// reported log10(IC50) per item
molecular target: Cysteinyl leukotriene receptor 1 (Cavia porcellus); assay: Inhibitory concentration against [3H]Leukotriene D4 binding to guinea-pig lung membranes was determined; experiment 2; assay type: tissue-based, Membrane
Quantity Kind: log10(IC50) (log10 of the value in nM)

>  <Compound>
CCC(CSC(CCc1ccccc1C(=O)NS(=O)(=O)c1ccccc1C)c1cccc(OCc2ccc3ccc(Cl)cc3n2)c1)C(=O)[O-].[Na+] (stereo unspecified)

>  <log10(IC50)>
0.81

$$$$
>  <Compound>
CCC(CSC(CCc1ccccc1S(C)(=O)=O)c1cccc(OCc2ccc3ccc(Cl)cc3n2)c1)C(=O)[O-].[Na+] (stereo unspecified)

>  <log10(IC50)>
0.00

$$$$
>  <Compound>
CCOC(=O)Nc1ccccc1CCC(SCC(CC)C(=O)[O-])c1cccc(CCc2ccc3ccc(Cl)cc3n2)c1.[Na+] (stereo unspecified)

>  <log10(IC50)>
-0.22

$$$$
>  <Compound>
C[C@H](CS[C@@H](CCc1ccccc1C(C)(C)O)c1cccc(OCc2ccc3ccc(Cl)cc3n2)c1)C(=O)[O-].[Na+]

>  <log10(IC50)>
1.30

$$$$
>  <Compound>
NS(=O)(=O)c1ccccc1CCC(SCCC(=O)[O-])c1cccc(OCc2ccc3ccc(Cl)cc3n2)c1.[Na+] (stereo unspecified)

>  <log10(IC50)>
-0.22

$$$$
>  <Compound>
CCC(CSC(CCc1ccccc1-c1nn[nH]n1)c1cccc(OCc2ccc3ccc(Cl)cc3n2)c1)C(=O)[O-].[Na+] (stereo unspecified)

>  <log10(IC50)>
-0.30

$$$$
